Reported inhibition at 0.05 µM is given for each of the following compounds.
target: CDK2/Cyclin A (Homo sapiens, UniProt P24941); experiment: Inhibition of CDK2/Cyclin A Retinoblastoma Kinase Activity; format: biochemical; conditions: read-out: % inhibition of CDK2 (@ 0.05 μM), compound at 0.05 μM
Give a bare numeral; the unit % is implied.

molecule_smiles=Nc1nc(NC2CCN(S(=O)(=O)CCCNCCOCCO)CC2)sc1C(=O)c1c(F)cccc1F measurement_type="inhibition at 0.05 µM" units_symbol=% readout_number=74

Task item: Give the reported inhibition at 0.05 µM for "CN(CCCS(=O)(=O)N1CCC(Nc2nc(N)c(C(=O)c3c(F)cccc3F)s2)CC1)Cc1ccccc1" (system: CDK2/Cyclin A (Homo sapiens, UniProt P24941)).
Reply: 90

Task item: Please give the result for "CN(C)CCNCCCS(=O)(=O)N1CCC(Nc2nc(N)c(C(=O)c3c(F)cccc3F)s2)CC1" too.
Reply: 75

Task item: Please give the result for "CCN(CCCS(=O)(=O)N1CCC(Nc2nc(N)c(C(=O)c3c(F)cccc3F)s2)CC1)CCOC" too.
Reply: 75

Task item: Please give the result for "Cc1c(CNCCCS(=O)(=O)N2CCC(Nc3nc(N)c(C(=O)c4c(F)cccc4F)s3)CC2)cnn1C" too.
Reply: 85

Task item: Please give the result for "Cc1cc(NCCCS(=O)(=O)N2CCC(Nc3nc(N)c(C(=O)c4c(F)cccc4F)s3)CC2)no1" too.
Reply: 80

Task item: Please give the result for "Nc1nc(NC2CCN(S(=O)(=O)CCCN3CCC(CO)CC3)CC2)sc1C(=O)c1c(F)cccc1F" too.
Reply: 71

###

target: human CDK4 and genetically truncated (1-264) cyclin D3 (Homo sapiens); experiment: Inhibition of CDK4/Cyclin D Retinoblastoma Kinase Activity; format: biochemical; conditions: 0.03 μM compound; Table 2
Sequence (P11802 whole entry, the tested form may be a part): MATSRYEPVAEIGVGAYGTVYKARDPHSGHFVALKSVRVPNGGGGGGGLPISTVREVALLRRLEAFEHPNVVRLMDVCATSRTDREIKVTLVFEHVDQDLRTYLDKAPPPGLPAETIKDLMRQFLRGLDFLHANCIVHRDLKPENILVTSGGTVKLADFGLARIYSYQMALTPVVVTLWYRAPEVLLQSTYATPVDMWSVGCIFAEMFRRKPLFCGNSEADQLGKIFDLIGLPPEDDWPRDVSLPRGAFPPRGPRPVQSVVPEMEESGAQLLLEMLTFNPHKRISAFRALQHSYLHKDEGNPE
Sequence (P30281 1-264 partner): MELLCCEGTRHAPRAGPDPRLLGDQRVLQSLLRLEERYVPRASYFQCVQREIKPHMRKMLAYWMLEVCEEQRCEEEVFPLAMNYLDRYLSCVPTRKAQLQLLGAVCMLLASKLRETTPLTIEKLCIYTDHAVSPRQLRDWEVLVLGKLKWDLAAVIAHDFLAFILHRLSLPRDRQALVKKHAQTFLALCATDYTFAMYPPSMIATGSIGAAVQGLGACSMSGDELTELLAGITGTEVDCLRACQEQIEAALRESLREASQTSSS
Each record is given 1.0 if its reported CDK4 % Inhibition at 0.03 μM is strictly below 10%. Records at or above 10% are given 0.0.

Some entries whose results are on file:
compound=COC(=O)[C@H](Cc1ccccc1)NC(=O)N1CCC(Nc2nc(N)c(C(=O)c3c(F)cccc3F)s2)CC1 label_class=0.0
compound=CCNC(=O)N1CCC(Nc2nc(N)c(C(=O)c3c(F)cccc3F)s2)CC1 label_class=1.0
compound="CCOC(=O)C(C)NC(=O)N1CCC(Nc2nc(N)c(C(=O)c3c(F)cccc3F)s2)CC1 (stereo not shown)" label_class=0.0
compound=CCCCCCNC(=O)N1CCC(Nc2nc(N)c(C(=O)c3c(F)cccc3F)s2)CC1 label_class=1.0
compound=Nc1nc(NC2CCN(C(=O)NC(=O)Oc3ccccc3)CC2)sc1C(=O)c1c(F)cccc1F label_class=0.0

Task item: Determine whether this compound shows CDK4 % Inhibition at 0.03 μM lower than 10% (ties excluded): "Nc1nc(NC2CCN(C(=O)Nc3ccc(-c4ccccc4)cc3)CC2)sc1C(=O)c1c(F)cccc1F"
Reply: 1.0

Task item: Please give the result for "CCOC(=O)CC[C@H](NC(=O)N1CCC(Nc2nc(N)c(C(=O)c3c(F)cccc3F)s2)CC1)C(=O)OCC" too.
Reply: 0.0

Task item: Please give the result for "Nc1nc(NC2CCN(C(=O)NCc3ccccc3)CC2)sc1C(=O)c1c(F)cccc1F" too.
Reply: 0.0

Task item: Please give the result for "Nc1nc(NC2CCN(C(=O)Nc3cc(Cl)nc(Cl)c3)CC2)sc1C(=O)c1c(F)cccc1F" too.
Reply: 1.0

Task item: Please give the result for "Nc1nc(NC2CCN(C(=O)NC3CCCCC3)CC2)sc1C(=O)c1c(F)cccc1F" too.
Reply: 1.0

Task item: Please give the result for "CCCc1ccccc1NC(=O)N1CCC(Nc2nc(N)c(C(=O)c3c(F)cccc3F)s2)CC1" too.
Reply: 1.0

Task item: Please give the result for "COc1cc(NC(=O)N2CCC(Nc3nc(N)c(C(=O)c4c(F)cccc4F)s3)CC2)cc(OC)c1" too.
Reply: 0.0

Task item: Please give the result for "Nc1nc(NC2CCN(C(=O)Nc3cccc4ccccc34)CC2)sc1C(=O)c1c(F)cccc1F" too.
Reply: 1.0

Task item: Please give the result for "Nc1nc(NC2CCN(C(=O)Nc3ccc(F)cc3)CC2)sc1C(=O)c1c(F)cccc1F" too.
Reply: 1.0
